- Tested on: HepG2
- Experiment Notes: Cytotoxicity against human HepG2 cells assessed as cellular growth at 50 uM incubated for 1 hr prior to TNF alpha stimulation measured after 48 hrs by SRB assay
- Type: functional
Each entry gets Criterion not met if its Activity stays under -30%, and Criterion met if its Activity is -30% or above.

Chem Smiles | Class Assignment
c1ccc2c(NCCc3ccc4c(c3)OCO4)ncnc2c1 | Criterion met
c1ccc(CN2CCN(c3nc(-c4ccccc4)nc4ccccc34)CC2)cc1 | Criterion met
Oc1ccc(CN2CCN(c3nc(-c4ccccc4)nc4ccccc34)CC2)cc1 | Criterion not met
Oc1ccccc1CN1CCN(c2nc(-c3ccccc3)nc3ccccc23)CC1 | Criterion met
Oc1ccccc1CN1CCN(c2ncnc3ccccc23)CC1 | Criterion met

---

- System: HepG2
- Experiment Notes: Cytotoxicity against human HepG2 cells assessed as cellular growth at 50 uM incubated for 1 hr prior to TNF alpha stimulation measured after 48 hrs by SRB assay
- Type: functional
Result Type: Activity (%)

Chem Smiles | Result Type | Value Observed
c1ccc(CN2CCN(c3ncnc4ccccc34)CC2)cc1 | Activity | -17.6
Oc1ccc(CN2CCN(c3ncnc4ccccc34)CC2)cc1 | Activity | -13.3
Oc1ccc(Br)cc1CN1CCN(c2nc(-c3ccccc3)nc3ccccc23)CC1 | Activity | 13
c1ccc(-c2nc(NCCc3ccc4c(c3)OCO4)c3ccccc3n2)cc1 | Activity | -46.8
Oc1ccc(Br)cc1CN1CCN(c2ncnc3ccccc23)CC1 | Activity | -29.9
c1ccc(-c2nc(NCCc3c[nH]c4ccccc34)c3ccccc3n2)cc1 | Activity | -46.7
